Source of measurements: patent US20120135923A1

Task for the reader: assign each of the following binders its reported Ki.
# Tgt: T1, human melanocortin receptor subtype 4 (hMC4-R) (human, UniProt P32245 1-332)
# T1 construct: whole, on cells; membranes of CHO-K1 cells
# Test: [125I]-NDP-α-MSH competition, membranes
Bridge positions count the residues as written; N and C are the ends. Square brackets hold non-standard residues; d marks the D form. Ends that are not written are not given here. 1Nal = N[C@@H](Cc1cccc2ccccc12)C(=O)O; 2Nal = N[C@@H](Cc1ccc2ccccc2c1)C(=O)O; d2Nal = N[C@H](Cc1ccc2ccccc2c1)C(=O)O; Bta = N[C@@H](Cc1csc2ccccc12)C(=O)O; Aic = NC1(C(=O)O)Cc2ccccc2C1; Ac6c = NC1(C(=O)O)CCCCC1; Ac5c = NC1(C(=O)O)CCCC1; Ac3c = NC1(C(=O)O)CC1; βAla = NCCC(=O)O
The response must be a number in nM with no trailing unit.

Report Ki for Ac-CEH[d2Nal]R[Bta]ACPPKD[βAla]YGRKRRRQRRR-NH2 (disulfide 1-8) please. 0.624

Report Ki for D[Ac5c][d2Nal]RWK-NH2 (lactam 1-6; also: hydantoin ring: N-terminal N of Asp1 and backbone N of residue 2 bridged by one C(O), bridge at N via C(O), other end not in the chain) [c[Hydantoin(C(O)-(Asp-A5c))-D-2-Nal-Arg-Trp-Lys]-NH2] please. 44.6

Report Ki for Ac-CEH[d2Nal]RWACPPKD-NH2 (disulfide 1-8; SMILES CC(=O)N[C@H]1CSSC[C@@H](C(=O)N2CCC[C@H]2C(=O)N2CCC[C@H]2C(=O)N[C@@H](CCCCN)C(=O)N[C@@H](CC(=O)O)C(N)=O)NC(=O)[C@H](C)NC(=O)[C@H](Cc2c[nH]c3ccccc23)NC(=O)[C@H](CCCNC(=N)N)NC(=O)[C@@H](Cc2ccc3ccccc3c2)NC(=O)[C@H](Cc2c[nH]cn2)NC(=O)[C@H](CCC(=O)O)NC1=O) [Ac-c(Cys-Glu-His-D-2-Nal-Arg-Trp-Ala-Cys)-Pro-Pro-Lys-Asp-NH2] please. 0.569

Report Ki for Ac-CEH[d2Nal]R[2Nal]ACPPKD[βAla]GRKRRRQRRR-NH2 (disulfide 1-8) please. 0.446

Report Ki for Ac-CEH[d2Nal]R[Bta]ACPPKD[βAla]RRKRRQRRR-NH2 (disulfide 1-8) please. 0.442

Report Ki for D[Ac3c][d2Nal]RWK-NH2 (lactam 1-6; also: hydantoin ring: N-terminal N of Asp1 and backbone N of residue 2 bridged by one C(O), bridge at N via C(O), other end not in the chain) [c[Hydantoin(C(O)-(Asp-A3c))-D-2-Nal-Arg-Trp-Lys]-NH2] please. 420

Report Ki for Ac-CEH[d2Nal]R[2Nal]ACPPKD[βAla]YGRRKRRQRRR-NH2 (disulfide 1-8) please. 0.223

Report Ki for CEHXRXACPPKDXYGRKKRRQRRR (N-terminal Ac; D-2-Nal at 4; Bal at 6; β-Ala at 13; disulfide Cys1-Cys8; C-terminal NH2) please. 0.38

Report Ki for Ac-CEH[d2Nal]R[2Nal]ACPPKD[βAla]RRRRRRQRRR-NH2 (disulfide 1-8) please. 0.261

Report Ki for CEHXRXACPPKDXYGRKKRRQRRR (N-terminal Ac; D-2-Nal at 4; 2-Nal at 6; β-Ala at 13; disulfide Cys1-Cys8; C-terminal NH2) please. 0.17

Report Ki for RGC[dA]H[d2Nal]RWC-NH2 (disulfide 3-9; also: N-terminal hydantoin: C(O) bridges Arg1 N-alpha and Gly2 N, bridge at N via C(O), other end not in the chain) [Hydantoin(C(O)-(Arg-Gly))-c(Cys-D-Ala-His-D-2-Nal-Arg-Trp-Cys)-NH2] please. 0.195

Report Ki for Ac-CEH[d2Nal]R[Bta]ACPPKD[βAla]RRRRRQRRR-NH2 (disulfide 1-8) please. 0.192

Report Ki for Ac-CEH[d2Nal]R[1Nal]ACPPKD[βAla]RRRRRRQRRR-NH2 (disulfide 1-8) please. 0.819

Report Ki for XCAHFRWCXYGRKKRRQRRR (N-terminal Ac; Nle at 1; D-Ala at 3; D-Phe at 5; Doc at 9; disulfide Cys2-Cys8; C-terminal NH2) [Ac-Nle-c(Cys-D-Ala-His-D-Phe-Arg-Trp-Cys)-Doc-Tyr-Gly-Arg-Lys-Lys-Arg-Arg-Gln-Arg-Arg-Arg-NH2] please. 0.596

Report Ki for D[Ac6c][d2Nal]RWK-NH2 (lactam 1-6; also: hydantoin ring: N-terminal N of Asp1 and backbone N of residue 2 bridged by one C(O), bridge at N via C(O), other end not in the chain) [c[Hydantoin(C(O)-(Asp-A6c))-D-2-Nal-Arg-Trp-Lys]-NH2] please. 16.5

Report Ki for Ac-CEH[d2Nal]R[1Nal]ACPPKD[βAla]YGRKRRRQRRR-NH2 (disulfide 1-8) please. 0.301

Report Ki for D[Aic][d2Nal]RWK-NH2 (lactam 1-6; also: hydantoin ring: N-terminal N of Asp1 and backbone N of residue 2 bridged by one C(O), bridge at N via C(O), other end not in the chain) [c[Hydantoin(C(O)-(Asp-Aic))-D-2-Nal-Arg-Trp-Lys]-NH2] please. 35.8
